# protocol: Tmax in Wistar rat at 50 mg/kg, po
# Type: ADME, organism-based
# Design: dose 50 mg/kg, route oral
# condition.summary: in vivo
property: Tmax
Output should be the measured figure followed by the unit it is expressed in.

State the recorded Tmax for this entry: CCC(c1ccc(-c2ccc(F)cc2)cc1)n1ccnc1 (stereo unspecified)
6 h

----------
# measurement.target: Steroid 17-alpha-hydroxylase/17,20 lyase (Homo sapiens, UniProt P05093)
# Sequence (P05093 whole entry): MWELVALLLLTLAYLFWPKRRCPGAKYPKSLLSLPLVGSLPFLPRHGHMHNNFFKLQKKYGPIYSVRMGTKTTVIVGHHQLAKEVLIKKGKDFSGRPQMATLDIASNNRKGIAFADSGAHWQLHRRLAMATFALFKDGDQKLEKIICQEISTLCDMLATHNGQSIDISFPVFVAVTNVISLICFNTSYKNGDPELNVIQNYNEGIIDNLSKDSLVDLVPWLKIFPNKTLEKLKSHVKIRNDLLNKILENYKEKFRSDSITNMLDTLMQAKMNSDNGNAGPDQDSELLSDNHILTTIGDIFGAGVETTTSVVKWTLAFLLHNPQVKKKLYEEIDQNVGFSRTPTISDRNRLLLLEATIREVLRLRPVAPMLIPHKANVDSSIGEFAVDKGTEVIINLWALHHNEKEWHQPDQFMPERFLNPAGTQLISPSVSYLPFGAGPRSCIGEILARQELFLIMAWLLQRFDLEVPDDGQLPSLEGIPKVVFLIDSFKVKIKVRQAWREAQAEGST
# protocol: Inhibition of human CYP17 expressed in Escherichia coli coexpressed with cytochrome P450 reductase
Provide the reported pIC50 of each item.
In textbook form, pIC50 equals minus log to base ten of the concentration in mol/L.

State the recorded pIC50 for this entry: CC(C)CC(c1ccc(-c2ccccc2)cc1)n1ccnc1 (stereo unspecified)
5.68

State the recorded pIC50 for this entry: c1ccc2c(c1)Cc1cc(Cn3ccnc3)ccc1-2
6.41

State the recorded pIC50 for this entry: Fc1ccc(-c2ccc(C(CCCl)n3ccnc3)cc2)cc1 (stereo unspecified)
6.12

State the recorded pIC50 for this entry: CCC(c1ccc(-c2ccc(NC(=O)OC(C)(C)C)cc2)cc1)n1ccnc1 (stereo unspecified)
5.77

State the recorded pIC50 for this entry: CCC(c1ccc(-c2ccc(F)cc2)cc1)n1ccnc1 (stereo unspecified)
6.46

State the recorded pIC50 for this entry: CC(c1ccc2c(c1)Cc1cc(F)ccc1-2)n1ccnc1 (stereo unspecified)
6.77

State the recorded pIC50 for this entry: CCC(CC)(c1ccc(-c2ccc(F)cc2)cc1)n1ccnc1
5.89

State the recorded pIC50 for this entry: CC(c1ccc2c(c1)[nH]c1cc(F)ccc12)n1ccnc1 (stereo unspecified)
6.93

State the recorded pIC50 for this entry: CCc1ccc(-c2ccc(C(CC)n3ccnc3)cc2)cc1 (stereo unspecified)
5.70

State the recorded pIC50 for this entry: CCCC(c1ccc(-c2ccccc2)cc1)n1ccnc1 (stereo unspecified)
6.24

State the recorded pIC50 for this entry: c1ccc(-c2ccc(C(c3ccc(-c4ccccc4)cc3)n3ccnc3)cc2)cc1
5.64

State the recorded pIC50 for this entry: c1ccc(-c2ccc(C(C3CCCCC3)n3ccnc3)cc2)cc1 (stereo unspecified)
5.98

State the recorded pIC50 for this entry: CCCCC(c1ccc(-c2ccccc2)cc1)n1ccnc1 (stereo unspecified)
6.52

State the recorded pIC50 for this entry: CC(c1ccc(-c2ccc(F)cc2)cc1)n1ccnc1 (stereo unspecified)
5.96

State the recorded pIC50 for this entry: c1ccc(CC(c2ccc(-c3ccccc3)cc2)n2ccnc2)cc1 (stereo unspecified)
6.11

State the recorded pIC50 for this entry: CC(C)(c1ccc(-c2ccc(F)cc2)cc1)n1ccnc1
5.42

State the recorded pIC50 for this entry: CCC(c1ccc(-c2ccc(SC)cc2)cc1)n1ccnc1 (stereo unspecified)
5.51

State the recorded pIC50 for this entry: CCC(c1ccc(-c2ccc(O)cc2)cc1)n1ccnc1 (stereo unspecified)
6.43

State the recorded pIC50 for this entry: CC(C)C(c1ccc(-c2ccccc2)cc1)n1ccnc1 (stereo unspecified)
6.51

State the recorded pIC50 for this entry: CC(c1ccc2c(c1)Cc1ccccc1-2)n1ccnc1 (stereo unspecified)
6.95

State the recorded pIC50 for this entry: CCC(c1ccc(-c2ccccc2)cc1)n1ccnc1 (stereo unspecified)
6.35

State the recorded pIC50 for this entry: CC(c1ccc2c(c1)[nH]c1ccccc12)n1ccnc1 (stereo unspecified)
6.55

State the recorded pIC50 for this entry: CC(c1ccc2c(c1)Cc1cc(O)ccc1-2)n1ccnc1 (stereo unspecified)
7.00

State the recorded pIC50 for this entry: C=CC(c1ccc(-c2ccccc2)cc1)n1ccnc1 (stereo unspecified)
5.85

Recorded values, source ChEMBL document CHEMBL1156610.
